Provenance of the data: paper PMC10303166

# Assayed system: COX-2 (Homo sapiens, UniProt P35354)
# Sequence (P35354 18-604): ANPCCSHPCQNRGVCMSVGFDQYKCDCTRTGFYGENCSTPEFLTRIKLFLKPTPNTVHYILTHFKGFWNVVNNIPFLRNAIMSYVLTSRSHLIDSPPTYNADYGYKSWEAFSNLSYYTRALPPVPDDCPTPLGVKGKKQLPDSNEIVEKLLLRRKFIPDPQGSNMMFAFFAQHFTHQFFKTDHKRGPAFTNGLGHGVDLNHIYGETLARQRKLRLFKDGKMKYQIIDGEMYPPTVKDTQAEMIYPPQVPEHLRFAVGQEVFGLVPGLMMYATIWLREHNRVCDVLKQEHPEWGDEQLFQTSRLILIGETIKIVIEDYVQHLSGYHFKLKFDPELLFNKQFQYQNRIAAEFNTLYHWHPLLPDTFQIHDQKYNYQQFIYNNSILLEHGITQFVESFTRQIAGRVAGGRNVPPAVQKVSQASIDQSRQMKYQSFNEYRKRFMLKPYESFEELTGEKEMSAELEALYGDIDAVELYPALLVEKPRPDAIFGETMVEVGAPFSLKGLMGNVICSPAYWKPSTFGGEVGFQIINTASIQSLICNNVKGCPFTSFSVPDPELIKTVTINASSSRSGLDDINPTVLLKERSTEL
# Assay info: Colorimetric cyclooxygenase inhibition assay (COX-2)
# Type: biochemical
# Test parameters: ratio COX-2 over COX-1
Readout: COX Selectivity Ratio IC50(COX-2)/IC50(COX-1)

Q) I have this compound here, CCCCn1c(C)c2c(c1C)C(=O)N(CC(O)CN1CCN(S(C)(=O)=O)CC1)C2=O (centres unmarked) [3o] , and I need its recorded COX Selectivity Ratio IC50(COX-2)/IC50(COX-1).
A) 0.85

Q) I have this compound here, Cc1c2c(c(C)n1-c1cccc(Cl)c1)C(=O)N(CC(O)CN1CCN(S(C)(=O)=O)CC1)C2=O (centres unmarked) [3n] , and I need its recorded COX Selectivity Ratio IC50(COX-2)/IC50(COX-1).
A) 0.71

Q) I have this compound here, Cc1c2c(c(C)n1-c1ccccc1)C(=O)N(CC(O)CN1CCN(c3ccc(F)cc3F)CC1)C2=O (centres unmarked) [3d] , and I need its recorded COX Selectivity Ratio IC50(COX-2)/IC50(COX-1).
A) 0.73

Q) I have this compound here, Cc1c2c(c(C)n1-c1ccccc1)C(=O)N(CC(O)CN1CCN(c3cccc(C(F)(F)F)c3)CC1)C2=O (centres unmarked) [3h] , and I need its recorded COX Selectivity Ratio IC50(COX-2)/IC50(COX-1).
A) 0.75

Q) I have this compound here, Cc1c2c(c(C)n1-c1ccccc1)C(=O)N(CC(O)CN1CCN(c3ccc(F)cc3)CC1)C2=O (centres unmarked) [3c] , and I need its recorded COX Selectivity Ratio IC50(COX-2)/IC50(COX-1).
A) 0.76

Q) I have this compound here, CCCCn1c(C)c2c(c1C)C(=O)N(CC(O)CN1CCN(c3ccc(C)cc3)CC1)C2=O (centres unmarked) [3a] , and I need its recorded COX Selectivity Ratio IC50(COX-2)/IC50(COX-1).
A) 0.73

Q) I have this compound here, CCCCn1c(C)c2c(c1C)C(=O)N(CC(O)CN1CCN(c3ccc(Br)cc3)CC1)C2=O (centres unmarked) [3b] , and I need its recorded COX Selectivity Ratio IC50(COX-2)/IC50(COX-1).
A) 0.76

Q) I have this compound here, CCCCn1c(C)c2c(c1C)C(=O)N(CC(O)CN1CCN(c3ccc(F)cc3F)CC1)C2=O (centres unmarked) [3e] , and I need its recorded COX Selectivity Ratio IC50(COX-2)/IC50(COX-1).
A) 0.64
